quantity: CO2 permeability (Barrer)

{"molecule": "*C(C)=C(*)CC(C)C (repeat unit)", "readout.units": "Barrer", "recorded.value": 900}
{"molecule": "*C=C(*)c1cccc(O[Si](C)(C)C(C)(C)C)c1 (repeat unit)", "readout.units": "Barrer", "recorded.value": 58}
{"molecule": "*c1ccc(N(c2ccc(OC)cc2)c2ccc(N3C(=O)c4ccc(C(c5ccc6c(c5)C(=O)N(*)C6=O)(C(F)(F)F)C(F)(F)F)cc4C3=O)cc2)cc1 (repeat unit)", "readout.units": "Barrer", "recorded.value": 16.8}
{"molecule": "*c1c(C)cc(-c2cc(C)c(-n3c(=O)c4cc5oc6cc7c(cc6oc5cc4c3=O)C3(C)CCC7(C)c4cc5oc6cc7c(=O)n(*)c(=O)c7cc6oc5cc43)c3ccccc23)c2ccccc12 (repeat unit)", "readout.units": "Barrer", "recorded.value": 3000}
{"molecule": "*Oc1ccc(C(C)(C)c2ccc(Oc3c(F)c(F)c(COC(C4CCCC(C(OCc5c(F)c(F)c(*)c(F)c5F)(C(F)(F)F)C(F)(F)F)C4)(C(F)(F)F)C(F)(F)F)c(F)c3F)cc2)cc1 (repeat unit)", "readout.units": "Barrer", "recorded.value": 6.4}

(P) *c1ccc(Oc2ccc(N3C(=O)c4cc(Oc5ccccc5)c(-c5cc6c(cc5Oc5ccccc5)C(=O)N(*)C6=O)cc4C3=O)cc2)cc1 (repeat unit)
(Q) *Oc1ccc(S(=O)(=O)c2ccc(Oc3ccc(C(C)(C)c4ccc(*)c(C(O)(C(F)(F)F)C(F)(F)F)c4)cc3C(O)(C(F)(F)F)C(F)(F)F)cc2)cc1 (repeat unit)
Pick one: P or Q . Which one has the lower reported CO2 permeability? Answer with the label corresponding to your selection.
Q
(Q: 5.4 Barrer, P: 30.1 Barrer)

(P) *c1ccc(C(c2ccc(N3C(=O)c4ccc(-c5ccc6c(c5)C(=O)N(*)C6=O)cc4C3=O)cc2)(C(F)(F)F)C(F)(F)F)cc1 (repeat unit)
(Q) *c1ccc2c(c1)C1c3ccccc3C2c2ccc(N3C(=O)c4ccc(C(c5ccc6c(c5)C(=O)N(*)C6=O)(C(F)(F)F)C(F)(F)F)cc4C3=O)cc21 (repeat unit)
Pick one: P or Q . Which one has the lower reported CO2 permeability? Answer with the label corresponding to your selection.
P
